- target desc: Receptor tyrosine-protein kinase erbB-4 (Homo sapiens);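 note: values are averaged percent inhibition of ERBB4 kinase activity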
- protocol conditions: at 0.1 µM
experimental readout: inhibition (%)
Reply numerically in %, unit not repeated.

These recorded examples may help you get a feel for the data.
compound=CCCN1CCC(Oc2cc(Nc3nc(Nc4cccc(F)c4C(N)=O)c4cc[nH]c4n3)c(OC)cc2Cl)CC1 experimental_readout=inhibition val=0.71
compound=Fc1cccc(COc2ccc(Nc3ncnc4cc(-c5ccc[nH]5)sc34)cc2Cl)c1 experimental_readout=inhibition val=36.5

What value of measured inhibition is listed for "COc1cc(C=NNc2ncnc3c2cnn3-c2ccccc2)ccc1O" ?
3.71

Now the compound "O=C1Nc2ccc(C(=O)c3ccco3)cc2C1=Cc1cc(Cl)c(O)c(Cl)c1"
12.2

Check "CCn1c(-c2nonc2N)nc2cncc(C(=O)N3CC[C@H](N)C3)c21" too.
13.3

Also "COc1ccc(-c2ccncc2)cc1C(N)=O" ?
6.21

Then what about the compound COc1ccc2cc(-c3c(-c4ccncc4)nc(-c4ccc([S+](C)[O-])cc4)n3C)ccc2c1 (stereo not drawn) ?
12.1

Repeat with "CCn1c(-c2nonc2N)nc2cncc(C(=O)N3CCNCC3)c21"
9.03

Repeat for the following compound: "CS(=O)(=O)CCNCc1ccc(-c2ccc3ncnc(Nc4ccc(OCc5cccc(F)c5)c(C(F)(F)F)c4)c3c2)o1"
8.49

Can you handle "Cc1nnc(-c2ccc(C)c(-c3ccc(C(=O)Nc4cccc(C#N)c4)cc3)c2)o1" next?
11

Next compound: "CS(=O)(=O)CCNCc1nc(-c2ccc3ncnc(Nc4ccc(F)c(Cl)c4)c3c2)cs1"
46.6

Param item: "CCCN1CCC=C(c2ccc(Nc3nc(Nc4ccccc4C(N)=O)c4cc[nH]c4n3)c(C)c2)C1"
7.5
